# system-tested: IKZF2 (Homo sapiens, UniProt Q96SW2+Q9UKS7)
# Construct: expressed in transfected cells
# Sequence (Q9UKS7 1-500 isoform Q9UKS7-2): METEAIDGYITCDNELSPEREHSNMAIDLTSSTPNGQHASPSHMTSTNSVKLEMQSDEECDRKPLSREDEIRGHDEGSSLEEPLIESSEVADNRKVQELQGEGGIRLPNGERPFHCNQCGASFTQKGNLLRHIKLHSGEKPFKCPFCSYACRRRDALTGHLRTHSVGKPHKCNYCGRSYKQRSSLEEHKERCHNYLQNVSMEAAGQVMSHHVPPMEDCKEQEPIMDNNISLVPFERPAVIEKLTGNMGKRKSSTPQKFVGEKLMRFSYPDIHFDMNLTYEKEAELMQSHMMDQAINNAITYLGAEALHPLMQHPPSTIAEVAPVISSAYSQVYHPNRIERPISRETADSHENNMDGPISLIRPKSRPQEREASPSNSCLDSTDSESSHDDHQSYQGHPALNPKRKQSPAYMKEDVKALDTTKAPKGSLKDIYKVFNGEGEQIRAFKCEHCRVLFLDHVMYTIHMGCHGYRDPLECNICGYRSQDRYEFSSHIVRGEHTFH
# Sequence (Q96SW2 whole entry): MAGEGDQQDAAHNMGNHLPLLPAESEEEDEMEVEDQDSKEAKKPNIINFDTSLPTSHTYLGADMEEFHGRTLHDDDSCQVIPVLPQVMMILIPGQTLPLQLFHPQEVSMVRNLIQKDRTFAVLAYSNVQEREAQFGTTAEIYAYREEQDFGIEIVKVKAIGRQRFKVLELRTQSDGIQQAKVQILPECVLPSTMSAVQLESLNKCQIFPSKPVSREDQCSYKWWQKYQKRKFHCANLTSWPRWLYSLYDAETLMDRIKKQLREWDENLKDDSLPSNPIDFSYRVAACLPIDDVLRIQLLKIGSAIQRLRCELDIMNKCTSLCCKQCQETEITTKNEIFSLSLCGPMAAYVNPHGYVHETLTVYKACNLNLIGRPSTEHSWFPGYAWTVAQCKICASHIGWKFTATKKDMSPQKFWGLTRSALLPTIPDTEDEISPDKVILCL
# Sequence (Q16531 whole entry partner): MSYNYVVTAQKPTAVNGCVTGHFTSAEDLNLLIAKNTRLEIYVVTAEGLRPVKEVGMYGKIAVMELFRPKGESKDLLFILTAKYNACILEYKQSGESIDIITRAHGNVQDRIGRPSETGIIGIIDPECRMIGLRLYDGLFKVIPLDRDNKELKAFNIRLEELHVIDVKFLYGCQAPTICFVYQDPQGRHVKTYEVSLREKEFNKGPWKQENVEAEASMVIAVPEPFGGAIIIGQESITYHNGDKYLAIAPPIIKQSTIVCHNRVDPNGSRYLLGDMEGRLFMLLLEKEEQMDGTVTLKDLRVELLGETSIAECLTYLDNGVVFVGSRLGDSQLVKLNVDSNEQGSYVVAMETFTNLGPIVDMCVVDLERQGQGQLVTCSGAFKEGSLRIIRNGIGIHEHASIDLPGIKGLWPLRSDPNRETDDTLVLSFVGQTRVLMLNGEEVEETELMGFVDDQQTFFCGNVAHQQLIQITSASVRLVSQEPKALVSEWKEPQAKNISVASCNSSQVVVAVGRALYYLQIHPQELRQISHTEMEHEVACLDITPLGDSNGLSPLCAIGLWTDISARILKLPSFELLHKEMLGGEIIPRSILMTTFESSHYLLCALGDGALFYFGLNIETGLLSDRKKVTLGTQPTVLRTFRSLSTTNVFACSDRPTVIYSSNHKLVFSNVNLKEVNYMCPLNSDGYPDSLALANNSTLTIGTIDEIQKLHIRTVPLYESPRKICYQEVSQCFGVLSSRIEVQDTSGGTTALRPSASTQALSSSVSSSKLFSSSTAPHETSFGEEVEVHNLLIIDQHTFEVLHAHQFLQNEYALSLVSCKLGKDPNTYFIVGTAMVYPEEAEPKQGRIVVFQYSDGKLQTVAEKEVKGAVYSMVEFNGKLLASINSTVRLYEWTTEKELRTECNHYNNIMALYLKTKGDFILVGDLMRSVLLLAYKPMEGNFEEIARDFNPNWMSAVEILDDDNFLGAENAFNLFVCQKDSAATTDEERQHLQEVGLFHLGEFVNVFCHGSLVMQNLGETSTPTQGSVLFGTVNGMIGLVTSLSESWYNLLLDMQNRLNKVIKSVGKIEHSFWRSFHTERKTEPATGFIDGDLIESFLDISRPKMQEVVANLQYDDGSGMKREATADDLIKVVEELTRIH
# method-notes: HiBiT protein tagging assay, in vitro IKZF2 degradation (HEK293)
# Type: cell-based
# measurement-setup: HEK293, HiBiT assay, HEK293, 18-24 hr incubation, normalized to DMSO control; read-out: IKZF2 Dmax (maximum degradation at the highest concentration tested)
Entries whose Dmax is below 80% take rule met; entries at or above 80% take rule not met.

INSERT INTO assay_data (compound, class) VALUES
  ('O=C1CCC(N2Cc3cc(CN[C@@H]4CCCC[C@H]4OCc4ccccc4)ccc3C2=O)C(=O)N1 (some centres unmarked) [Example 126]', 'rule not met'),
  ('C[C@@H]1CC[C@@H](NCc2ccc3c(c2)CN(C2CCC(=O)NC2=O)C3=O)CN1Cc1ccccc1 (some centres unmarked) [Example 138]', 'rule not met'),
  ('CC1CCC(C)(NCc2ccc3c(c2)CN(C2CCC(=O)NC2=O)C3=O)CC1 (centres unmarked) [Example 147]', 'rule not met'),
  ('C[C@@H](NCc1ccc2c(c1)CN(C1CCC(=O)NC1=O)C2=O)c1ccccc1 (some centres unmarked) [Example 16]', 'rule met'),
  ('C[C@@H](c1ccccc1)N1CCC[C@@H](NCc2ccc3c(c2)CN(C2CCC(=O)NC2=O)C3=O)C1 (some centres unmarked) [Example 27]', 'rule not met'),
  ('O=C1CCC(N2Cc3cc(CN[C@H]4CCC[C@@H](O)C4)ccc3C2=O)C(=O)N1 (some centres unmarked) [Example 81]', 'rule met'),
  ('O=C1CCC(N2Cc3cc(CN[C@H](CO)Cc4ccccc4)ccc3C2=O)C(=O)N1 (some centres unmarked) [Example 56]', 'rule met'),
  ('O=C1CCC(N2Cc3cc(CN[C@@H]4CCC[C@H]([C@H](O)c5ccccc5)C4)ccc3C2=O)C(=O)N1 (some centres unmarked) [Example 136]', 'rule not met'),
  ('O=C1CCC(N2Cc3cc(CNC4CCN(c5ccccn5)CC4)ccc3C2=O)C(=O)N1 (centres unmarked) [Example 35]', 'rule not met'),
  ('CC1(C)CCCC(NCc2ccc3c(c2)CN(C2CCC(=O)NC2=O)C3=O)C1 (centres unmarked) [Example 131]', 'rule not met'),
  ('O=C1CCC(N2Cc3cc(CNCc4cc5ccccc5[nH]4)ccc3C2=O)C(=O)N1 (centres unmarked) [Example 64]', 'rule met'),
  ('O=C1CCC(N2Cc3cc(CNC4CCCC(c5ccccc5)C4)ccc3C2=O)C(=O)N1 (centres unmarked) [Example 50]', 'rule met'),
  ('O=C1CCC(N2Cc3cc(CN[C@@H]4CCC[C@H](Oc5ccccc5)C4)ccc3C2=O)C(=O)N1 (some centres unmarked) [Example 92]', 'rule not met'),
  ('C[C@@H]1[C@H]2C[C@@H](C[C@H]1NCc1ccc3c(c1)CN(C1CCC(=O)NC1=O)C3=O)C2(C)C (some centres unmarked) [Example 139]', 'rule met'),
  ('O=C1CCC(N2Cc3cc(CNC45CCC(CO)(CC4)C5)ccc3C2=O)C(=O)N1 (centres unmarked) [Example 142]', 'rule not met'),
  ('O=C1CCC(N2Cc3cc(CNCCc4ccccc4Cl)ccc3C2=O)C(=O)N1 (centres unmarked) [Example 44]', 'rule met'),
  ('O=C1CCC(N2Cc3cc(CN[C@@H]4CCC[C@H]([C@@H](O)c5ccccc5)C4)ccc3C2=O)C(=O)N1 (some centres unmarked) [Example 135]', 'rule not met'),
  ('C[C@@]1(NCc2ccc3c(c2)CN(C2CCC(=O)NC2=O)C3=O)CCCN(Cc2ccccc2)C1 (some centres unmarked) [Example 156]', 'rule not met'),
  ('O=C1CCC(N2Cc3cc(CNC4CCCC(Cn5cccn5)C4)ccc3C2=O)C(=O)N1 (centres unmarked) [Example 121]', 'rule not met'),
  ('N#C[C@H]1CC[C@@H](NCc2ccc3c(c2)CN(C2CCC(=O)NC2=O)C3=O)CC1 (some centres unmarked) [Example 87]', 'rule not met'),
  ('O=C1CCC(N2Cc3cc(CN[C@H]4CCCC[C@H]4CO)ccc3C2=O)C(=O)N1 (some centres unmarked) [Example 39]', 'rule met'),
  ('C[C@@H]1CCCC[C@@H]1NCc1ccc2c(c1)CN(C1CCC(=O)NC1=O)C2=O (some centres unmarked) [Example 46]', 'rule met'),
  ('O=C1CCC(N2Cc3cc(CN[C@@H]4CCC[C@H](Nc5ccccc5)C4)ccc3C2=O)C(=O)N1 (some centres unmarked) [Example 90]', 'rule not met'),
  ('O=C1CCC(N2Cc3cc(CNCc4ccccc4)ccc3C2=O)C(=O)N1 (centres unmarked) [Example 33]', 'rule met'),
  ('O=C1CCC(N2Cc3cc(CN[C@H]4CCCC[C@@H]4O)ccc3C2=O)C(=O)N1 (some centres unmarked) [Example 38]', 'rule met'),
  ('O=C1CCC(N2Cc3cc(CN[C@H]4C[C@@H](O)C4)ccc3C2=O)C(=O)N1 (some centres unmarked) [Example 54]', 'rule met'),
  ('O=C1CCC(N2Cc3cc(CN[C@@H]4CCCN(Cc5ccccc5Cl)C4)ccc3C2=O)C(=O)N1 (some centres unmarked) [Example 26]', 'rule not met'),
  ('C[C@H](c1ccccc1)N1CCC[C@@H](NCc2ccc3c(c2)CN(C2CCC(=O)NC2=O)C3=O)C1 (some centres unmarked) [Example 28]', 'rule not met');

The measurements presented in this section are drawn from patent US20240124412A1.
